- Test system: MCC-13
- Run Description: qHTS assay to identify novel small-molecules to repurpose for Merkel cell carcinoma treatment (AID 1296009); note: nearly all actives have a fitted effect of over 60% in size
- Measurement Context: MCC and control cell lines, CellTiter-Glo viability, 72 h; series mostly up to 46 µM
Results filed as inconclusive are left out. Active and inactive are the calls of the source. Calls come from the whole dose curve; as a rule, active = well fitted inhibition curve with a large enough effect; inconclusive = small, poorly fitted or top-dose-only effect; inactive = flat fitted curve, though single readings scatter.
Result Type: outcome

• Cc1ccccc1N1C(=O)c2cc(S(N)(=O)=O)c(Cl)cc2NC1C (stereo not drawn) = inactive
• Cn1cnc2c1c(=O)[nH]c(=O)n2C = inactive
• CCC1(C)CC(=O)NC1=O (stereo not drawn) = inactive

---

- Run Description: Primary qHTS for inhibitors of nuclear receptor binding SET domain protein 2 (NSD2) in an isogenic RCH-ACV NSD2 p.E1099K mutant (9B) (AID 1645876); note: nearly all actives have a fitted effect of over 70% in size
- Measurement Context: RCH-ACV (leukaemia line) NSD2 E1099K (9B) viability, CellTiter-Glo, 72 h; series mostly up to 44.9 µM
Results filed as inconclusive are left out. Active and inactive are the calls of the source. Calls come from the whole dose curve; as a rule, active = well fitted inhibition curve with a large enough effect; inconclusive = small, poorly fitted or top-dose-only effect; inactive = flat fitted curve, though single readings scatter.
Result Type: outcome

* CC(C)NCC(O)c1ccc(O)c(O)c1 (stereo not given) | inactive
* CCN1CCCC1CNC(=O)c1cc(S(=O)(=O)CC)c(N)cc1OC (stereo not given) | inactive
* NCCS(=O)(=O)O | inactive
* CC(C)NCC(O)COc1ccc(CCOCC2CC2)cc1 (stereo not given) | inactive

Input CN1CCC(=C2c3ccccc3CC(=O)c3sccc32)CC1 , output reported outcome.
inactive
